Where these numbers come from: paper PMC9669442

- Subject Of Test: CeCht1 (CeCht1-CAD) (Caenorhabditis elegans, UniProt Q11174)
- Construct: gene cht-1; secreted/overexpressed in Pichia pastoris GS115, purified as in Chen Q. et al. 2021; catalytic residues Asp175, Asp177, Glu179
- Sequence (Q11174 52-431): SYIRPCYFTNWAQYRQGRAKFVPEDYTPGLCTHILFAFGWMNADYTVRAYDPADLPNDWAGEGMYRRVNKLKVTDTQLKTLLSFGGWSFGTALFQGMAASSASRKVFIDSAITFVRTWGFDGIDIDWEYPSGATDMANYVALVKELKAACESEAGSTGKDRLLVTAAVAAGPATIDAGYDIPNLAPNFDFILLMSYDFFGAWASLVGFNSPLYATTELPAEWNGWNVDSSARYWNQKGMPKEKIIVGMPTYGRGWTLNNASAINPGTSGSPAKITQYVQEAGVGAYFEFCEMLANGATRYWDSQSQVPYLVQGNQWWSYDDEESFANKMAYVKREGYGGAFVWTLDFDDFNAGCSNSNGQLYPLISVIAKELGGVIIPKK
- Method: end-point fluorescence assay, 4-methylumbelliferone release
- Type: biochemical
- Reported Conditions: 4 μM 4-MU-(GlcNAc)2, 10 nM enzyme, 20 mM sodium phosphate pH 6.0, 1% DMSO, 25 °C, 20 min
Measure Name: Inhibition rate at 10 μM (%)

A selection of reference data follows.
[in] Which Inhibition rate at 10 μM (%) value belongs to Cc1ccc2nc(SCc3noc(CCC(=O)Nc4ccc(C)c(C)c4)n3)[nH]c2c1 ?
[out] 0.4

[in] Give its Inhibition rate at 10 μM (%) value. Item: Cc1ccc(OCc2cc(=O)n3c4c(sc3n2)CCCC4)c(NC(=O)CC(C)C)c1
[out] 30.4

[in] Can you share its Inhibition rate at 10 μM (%)? I mean this compound: CCOc1cccc(CNC2CC(C)(C)Cc3c2cnn3-c2ccc(C)cc2)c1O (centres unmarked)
[out] 34.9

[A] COc1ccc(OC)c(-c2nc(C(=O)NCC3CCCO3)cc3c2[nH]c2ccccc23)c1 (centres unmarked)
[B] CCOc1ccc2ccccc2c1/C=N/NC(=O)CNC(=O)c1ccc2c(c1)OCCO2
[in] Compare the recorded Inhibition rate at 10 μM (%) of A and B ; state which is larger. Your answer should be the label of the entry you select.
[out] A

---

- Subject Of Test: CeCht1 (CeCht1-CAD) (Caenorhabditis elegans)
- Construct: secreted/overexpressed in Pichia pastoris GS115, purified as in Chen Q. et al. 2021; catalytic residues Asp175, Asp177, Glu179
- Method: end-point fluorescence assay, 4-methylumbelliferone release
Measure Name: IC50 (µM)

[a] CCn1c(=N)c(C(=O)NCCc2ccc(OC)cc2)cc2c(=O)n3cccc(C)c3nc21
[b] COc1ccc2cc(C(C)NC(=O)Cn3nnnc3CN3CCCC3)ccc2c1 (centres unmarked)
[in] Would you kindly point out which of a and b has the smaller IC50 figure? Refer to your chosen entry by its label in the reply.
[out] a
